assaySystem: human mesothelin (recombinant, soluble) (human) (UniProt Q13421)
Sequence (Q13421 other isoform, or with tags, fused parts or gaps limits assumed): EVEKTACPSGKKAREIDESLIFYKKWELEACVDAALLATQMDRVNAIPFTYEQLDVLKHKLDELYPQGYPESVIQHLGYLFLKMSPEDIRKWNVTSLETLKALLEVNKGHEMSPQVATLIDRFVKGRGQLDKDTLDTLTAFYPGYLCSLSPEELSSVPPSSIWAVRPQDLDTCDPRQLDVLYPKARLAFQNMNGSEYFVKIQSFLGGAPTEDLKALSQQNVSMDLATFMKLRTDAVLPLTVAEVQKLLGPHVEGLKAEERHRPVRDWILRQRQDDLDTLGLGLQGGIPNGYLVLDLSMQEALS
protocolDescription: SPR BIAcore, parental mAb captured, mesothelin analyte
This section presents binders with their documented kon values.
Give the quantity in M⁻¹ s⁻¹, number only.

33O11 zu (humanized anti-human mesothelin antibody) (antibody, from another filing, V domains shown) VH: EVQLVESGGGLVQPGGSLRLSCAASGISLSSDAISWVRQAPGKGLEYIGIINGGGNTYYASWAKGRFTISRHNSKNTLYLQMNSLRAEDTAVYYCARGIQHGGGNSDYYYYGMDLWGQGTLVTVSS VL: DIQMTQSPSSLSASVGDRVTITCQASQSISSVLSWYQQKPGKAPKLLIYLASTLASGVPSRFSGSGSGTDFTLTISSLQCEDIATYYCQTNYGTSSSNYGFAFGGGTKVEIKR | 220000

Exercise: // Input: 111B10 (rabbit-human chimeric anti-human mesothelin antibody) (antibody, from another filing, V domains shown) VH: QSVEESGGRLVTPGTPLTLTCTVSGFSLNNYAMSWVRQAPGKGLEWIGSISTGGLAFYANWAKGRFTISRTSTTVDLKMTSLTTEDTATYFCGRNGGGSYIFYYFDLWGQGTLVTVSS VL: AFELTQTPSSVEAAVGGTITIKCQASQSISSYLSWYQQKPGQPPKLLIYSASTLASGVSSRFKGSGSGTEYTLTISDLECADAATYFCQSYYDIGTSTFGGGTEVVVKR . Output its kon only.
Key: 650000

Exercise: // Input: 201C15 (rabbit-human chimeric anti-human mesothelin antibody) (antibody, from another filing, V domains shown) VH: QSVKESGGRLVTPGTPLTLTCTVSGIDLSSYAMGWFRQAPGKGLEYIGTINIGGRVYYASWAKGRFTISRTSTTVDLKAPSLTAEDTATYFCARYYNGGSYDIWGPGTLVTVSL VL: DVVMTQTPASASEPVGGTVTIKCQASESIYRVLAWYQQKPGQPPKLLIYDTSTLASGAPSRFKGSGYGTEFTLTISGVQCEDAATYYCQGGYYADSYGIAFGGGTEVVVKR . Output its kon only.
Key: 240000

Exercise: // Input: 346C6 (rabbit-human chimeric anti-human mesothelin antibody) (antibody, from another filing, V domains shown) VH: QSVEESGGRLVKPDESLTLTCTASGFSLSSYAMIWVRQAPGEGLEWIGTISTGGITYYASWAKGRFTISKTSTTVDLKITSPTTEDTATYFCARGGYAASSAYYLPYYFDLWGQGTLVTVSS VL: AAVLTQTPSPVSAAVGGTVTISCQSSQSVYNNNNLAWFQQKPGQPPKLLIYLASTLASGVPSRFSGSGSGTQFTLTISGVQCDDAATYYCLGGCDDDADTFAFGGGTEVVVKR . Output its kon only.
Key: 380000
